Where these numbers come from: paper PMC12212125

B1: Arabidopsis thaliana cryptochrome 2 (CRY2, UniProt Q96524), residues 1-535 fused after the Gal4 DNA-binding domain (Gal4BD-CRY2(535)); mutagenized window 321-412, Q96524 (parent)
chain: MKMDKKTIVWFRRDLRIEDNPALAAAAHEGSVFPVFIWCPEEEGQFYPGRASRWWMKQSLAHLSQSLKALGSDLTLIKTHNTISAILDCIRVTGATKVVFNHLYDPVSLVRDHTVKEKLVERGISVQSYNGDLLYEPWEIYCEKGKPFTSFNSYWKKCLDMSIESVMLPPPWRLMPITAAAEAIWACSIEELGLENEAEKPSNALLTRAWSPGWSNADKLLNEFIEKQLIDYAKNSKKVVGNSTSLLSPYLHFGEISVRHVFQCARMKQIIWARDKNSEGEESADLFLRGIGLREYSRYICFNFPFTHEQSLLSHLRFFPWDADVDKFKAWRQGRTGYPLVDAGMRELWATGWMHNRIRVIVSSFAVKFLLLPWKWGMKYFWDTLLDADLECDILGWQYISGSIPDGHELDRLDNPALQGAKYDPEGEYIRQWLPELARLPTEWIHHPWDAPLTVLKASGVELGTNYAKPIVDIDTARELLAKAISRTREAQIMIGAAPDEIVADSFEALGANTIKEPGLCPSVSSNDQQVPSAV

variants of: B1; experiment: yeast two-hybrid growth selection (MaV203; Gal4BD-CRY2(1-535) library x Gal4AD-CIB1; URA3 reporter on SC -Trp/-Leu/-Ura) in the dark, deep sequencing before and after selection, Enrich2 scoring; three independent screens (one at 48 h, two …); details: with CIB1 (CRYPTOCHROME-INTERACTING BASIC-HELIX-LOOP-HELIX 1), dark (no blue light), screens 1, 3 and 4, Svar > 0 = enriched under dark selection for CRY2-CIB1 two-hybrid growth (URA3 reporter), < 0 = depleted, relative to wild type (whose scores are 0). 'The Enrich2 software calculates, parent: 0, not an affinity, scale: Enrich2 score, numbering: uniprot, sequence starts at 1
Binning scheme for enrichment: band A = under -0.6, band B = from -0.6 up to 0.3, band C = 0.3 and over

> print(dat)
   variant.description  category.label
1                I400T          band A

Q) Bin? N356K
A) band B

Q) Using the reported enrichment, which band applies to V362I ?
A) band B

Q) Category lookup for the variant L371I
A) band A

Q) Entry S403G belongs to which category?
A) band B

Q) Any idea which band H355P is in?
A) band B

Q) Which category does the recorded enrichment put R346K in?
A) band C

Q) Lab note: sort E391Q into the matching enrichment band.
A) band A
